# Test system: esterase(s) in rat hepatic microsomes
# measurementProtocol: Esterase assay with rat hepatic microsomes
# Type: in vitro ADME
# studyConditions: rat hepatic microsomes, E16-1,2 = 100; ± S.D.
assayReadout: Esterase RHA (relative hydrolytic activity)

## Task Fill blank: measured Esterase RHA (relative hydrolytic activity) of the compound COC(=O)C[C@@H]1C[C@H]2[C@@H]3CCc4cc(O)ccc4[C@H]3CC[C@]2(C)[C@H]1O is ____.
## Result 340

## Task Value lookup for Esterase RHA (relative hydrolytic activity); key = COC(=O)CC[C@@H]1C[C@H]2[C@@H]3CCc4cc(O)ccc4[C@H]3CC[C@]2(C)[C@H]1O
## Result 910

I = CCCCOC(=O)[C@@H]1C[C@H]2[C@@H]3CCc4cc(O)ccc4[C@H]3CC[C@]2(C)[C@H]1O
II = CCOC(=O)[C@@H]1C[C@H]2[C@@H]3CCc4cc(O)ccc4[C@H]3CC[C@]2(C)[C@H]1O
## Task I'd appreciate it if you could identify which of I and II has the greater Esterase RHA (relative hydrolytic activity). Reply with the label of the item you choose.
## Result I
(I: 350, II: 100)

====

Attribute: Esterase RHA (relative hydrolytic activity)
# Tested on: esterase(s) in rat hepatic microsomes
# measurementProtocol: Esterase assay with rat hepatic microsomes
# Assay type: in vitro ADME
# studyConditions: rat hepatic microsomes, E16-1,2 = 100; ± S.D.

Example results:
## Task Quick check: Esterase RHA (relative hydrolytic activity) of C[C@]12CC[C@@H]3c4ccc(O)cc4CC[C@H]3[C@@H]1C[C@@H](C(=O)OCC(F)F)[C@@H]2O ?
## Result 2,350 ± 275

## Task # input molecule: C=COC(=O)[C@@H]1C[C@H]2[C@@H]3CCc4cc(O)ccc4[C@H]3CC[C@]2(C)[C@H]1O ; wanted: its Esterase RHA (relative hydrolytic activity)
## Result 20,300 ± 5,500

API: the following record is the query input.
## Task Which Esterase RHA (relative hydrolytic activity) value is on record for C[C@]12CC[C@@H]3c4ccc(O)cc4CC[C@H]3[C@@H]1C[C@@H](C(=O)OCC(F)(F)F)[C@@H]2O ?
## Result 8,200 ± 1,800
